Every entry's value here was drawn from ChEMBL document CHEMBL5126623.

- testedTarget: 17-beta-hydroxysteroid dehydrogenase type 1 (Homo sapiens)
- Sequence (P14061 whole entry): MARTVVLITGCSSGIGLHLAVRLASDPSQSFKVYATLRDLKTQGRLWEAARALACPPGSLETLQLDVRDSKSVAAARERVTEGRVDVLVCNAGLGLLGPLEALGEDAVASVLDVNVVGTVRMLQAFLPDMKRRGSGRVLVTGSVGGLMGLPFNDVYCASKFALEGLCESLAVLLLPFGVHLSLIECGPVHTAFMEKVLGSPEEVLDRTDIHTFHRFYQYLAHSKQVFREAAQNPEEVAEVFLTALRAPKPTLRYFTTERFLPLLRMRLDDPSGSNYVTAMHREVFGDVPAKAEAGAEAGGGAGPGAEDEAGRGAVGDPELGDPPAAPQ
- protocolNotes: Inhibition of human placental cytosolic fraction 17beta-HSD1 using [3H]-E1 as substrate in presence of NADH measured after 10 mins by HPLC method
- Type: subcellular, Placenta, Cytosol
measurementName: IC50 (nM)

[a] Cc1ccccc1N(C)C(=O)c1ccc(-c2ccc(O)c(F)c2)o1
[b] Cc1cc(F)ccc1N(C)C(=O)c1ccc(-c2ccc(O)cc2)o1
[c] Cc1ccncc1N(C)C(=O)c1ccc(-c2ccc(O)cc2)o1
Ascending by IC50, please: list the compounds accordingly. Give me the labels in the order the question wants.
a, b, c
(a: 11 nM, b: 23 nM, c: 260 nM)

[I] Cc1ccc(F)cc1N(C)C(=O)c1ccc(-c2ccc(O)cc2)o1
[II] Cc1ccccc1N(C)C(=O)c1ccc(-c2cccc(O)c2)o1
[III] Cc1cccnc1N(C)C(=O)c1ccc(-c2ccc(O)cc2)o1
Thanks in advance: please rank these 3 entries by IC50, highest to lowest. Give me the labels in the order the question wants.
III, II, I
